protocol-summary: in vivo
test-conditions: both sexes, mouse, intraperitoneal, Kunming mice, peritoneal injection, single administration, observed for one week
For each entry below, report its LD50 at 1 week value.
# unit: mg/kg | format: bare number

Quick one: LD50 at 1 week for CCCCOc1cc2nnnc(Nc3ccc(C)cc3)c2cc1OC ?
733

Which LD50 at 1 week is reported for this molecule? FC(F)(F)c1cccc(Nc2nnnc3ccc(Cl)nc23)c1
424

For the molecule shown here, FC(F)(F)Oc1cccc(Nc2nnnc3ccc(Cl)nc23)c1 , give the reported LD50 at 1 week.
292

====

measurement-target: VEGFR-2 (Homo sapiens, UniProt P35968)
Sequence (P35968 20-1356): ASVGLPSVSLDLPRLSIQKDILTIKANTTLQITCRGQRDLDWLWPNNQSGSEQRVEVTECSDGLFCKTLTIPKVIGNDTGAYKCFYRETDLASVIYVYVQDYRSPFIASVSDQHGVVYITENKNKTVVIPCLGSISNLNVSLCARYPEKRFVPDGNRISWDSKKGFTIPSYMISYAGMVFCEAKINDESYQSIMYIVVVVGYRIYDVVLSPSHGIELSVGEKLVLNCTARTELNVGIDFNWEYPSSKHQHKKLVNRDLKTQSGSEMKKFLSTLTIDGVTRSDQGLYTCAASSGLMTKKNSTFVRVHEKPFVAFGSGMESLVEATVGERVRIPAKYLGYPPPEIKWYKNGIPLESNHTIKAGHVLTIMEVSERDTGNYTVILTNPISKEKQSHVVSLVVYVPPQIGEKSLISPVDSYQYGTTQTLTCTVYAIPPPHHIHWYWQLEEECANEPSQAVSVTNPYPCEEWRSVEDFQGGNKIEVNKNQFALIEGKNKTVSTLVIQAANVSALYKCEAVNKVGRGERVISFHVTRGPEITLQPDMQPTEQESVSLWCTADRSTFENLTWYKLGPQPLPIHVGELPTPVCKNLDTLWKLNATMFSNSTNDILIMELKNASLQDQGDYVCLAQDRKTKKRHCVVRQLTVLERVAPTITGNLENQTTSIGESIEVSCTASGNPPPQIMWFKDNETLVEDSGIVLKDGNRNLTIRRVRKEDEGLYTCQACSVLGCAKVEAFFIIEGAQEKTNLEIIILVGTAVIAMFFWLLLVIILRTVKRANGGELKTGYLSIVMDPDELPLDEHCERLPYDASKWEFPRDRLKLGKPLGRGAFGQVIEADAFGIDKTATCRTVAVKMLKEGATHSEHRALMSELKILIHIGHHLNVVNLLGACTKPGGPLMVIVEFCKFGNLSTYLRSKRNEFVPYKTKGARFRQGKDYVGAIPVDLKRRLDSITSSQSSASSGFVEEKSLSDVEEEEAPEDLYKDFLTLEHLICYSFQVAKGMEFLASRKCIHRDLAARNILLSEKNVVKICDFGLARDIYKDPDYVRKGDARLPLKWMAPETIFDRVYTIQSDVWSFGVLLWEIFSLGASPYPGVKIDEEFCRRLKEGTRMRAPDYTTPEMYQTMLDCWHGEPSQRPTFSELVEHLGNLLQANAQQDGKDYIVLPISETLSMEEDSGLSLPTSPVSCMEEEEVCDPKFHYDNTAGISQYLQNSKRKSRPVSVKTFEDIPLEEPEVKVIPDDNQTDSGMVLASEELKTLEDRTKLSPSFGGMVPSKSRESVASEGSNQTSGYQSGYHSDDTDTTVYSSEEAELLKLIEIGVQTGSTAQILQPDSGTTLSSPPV
protocol-summary: VEGFR-2 inhibition rate test (kinase assay kit, colorimetric ELISA)
test-conditions: concentration not given
Define the label as 1.0 when Kinase inhibition rate (VEGFR-2) is strictly less than 2 and as 0.0 in all remaining cases.

Answer whether the compound COc1cc2c(Nc3cc(F)cc(F)c3)nnnc2cc1OCCCCl has Kinase inhibition rate (VEGFR-2) strictly less than 2
0.0

Is Kinase inhibition rate (VEGFR-2) of CCOc1cc2nnnc(Nc3ccc(C)cc3)c2cc1OC strictly below 2?
0.0

Is 2 strictly greater than the compound's reported Kinase inhibition rate (VEGFR-2)? compound: CCOc1cc2nnnc(Nc3ccccc3)c2cc1OC
0.0

# strict comparison: is reported Kinase inhibition rate (VEGFR-2) < 2? input = CCCCCOc1cc2nnnc(Nc3ccccc3F)c2cc1OC
0.0

Determine whether this compound shows Kinase inhibition rate (VEGFR-2) lower than 2 (ties excluded): COc1cc2c(Nc3ccc(F)c(C(F)(F)F)c3)nnnc2cc1OCCCCl
0.0

Determine whether this compound shows Kinase inhibition rate (VEGFR-2) lower than 2 (ties excluded): CCCCCOc1cc2nnnc(Nc3cccc(Br)c3)c2cc1OC
1.0

is_below(Kinase inhibition rate (VEGFR-2), 2) for CCOc1cc2nnnc(Nc3ccc(F)c(Cl)c3)c2cc1OC ?
0.0

Just wondering, is Kinase inhibition rate (VEGFR-2) of Clc1cccc(Nc2nnnc3ccc(Cl)nc23)c1 below 2?
0.0

Quick check: Kinase inhibition rate (VEGFR-2) of CCCCOc1cc2nnnc(Nc3cc(F)cc(F)c3)c2cc1OC under 2?
1.0

Quick check: Kinase inhibition rate (VEGFR-2) of CCCCCOc1cc2nnnc(Nc3cccc(Cl)c3)c2cc1OC under 2?
0.0

Field: below-cutoff. Rule: recorded Kinase inhibition rate (VEGFR-2) strictly less than 2. Subject: COc1cc2c(Nc3ccc(C(F)(F)F)cc3)nnnc2cc1OCCCCl
1.0

Please indicate whether the reported Kinase inhibition rate (VEGFR-2) of Fc1ccc(Nc2nnnc3ccccc23)cc1C(F)(F)F is strictly below 2.
1.0

Take the compound CCCCCOc1cc2nnnc(Nc3cccc(OC(F)(F)F)c3)c2cc1OC [Example 52] and say whether its Kinase inhibition rate (VEGFR-2) is less than 2.
0.0

In plain terms, does CCCCOc1cc2nnnc(Nc3cccc(C(F)(F)F)c3)c2cc1OC come in under 2 for Kinase inhibition rate (VEGFR-2)?
1.0

Here's an entry: COc1cc2c(Nc3ccc(OC(F)(F)F)cc3)nnnc2cc1OCCCCl . Is its Kinase inhibition rate (VEGFR-2) below 2?
0.0

# check: Kinase inhibition rate (VEGFR-2) < 2 for Fc1ccc(Nc2nnnc3ccc(Cl)nc23)cc1Cl
1.0

Given CCCCCOc1cc2nnnc(Nc3ccc(C)cc3)c2cc1OC , is recorded Kinase inhibition rate (VEGFR-2) strictly lower than 2?
0.0

Consider the compound COc1cc2c(Nc3ccc(Br)c(F)c3)nnnc2cc1OCCCCl . Is its Kinase inhibition rate (VEGFR-2) strictly less than 2?
0.0

A record lists CCCCOc1cc2nnnc(Nc3cccc(OC(F)(F)F)c3)c2cc1OC . Is its Kinase inhibition rate (VEGFR-2) below 2?
1.0

hey, is Kinase inhibition rate (VEGFR-2) for COc1cc2c(Nc3cc(Cl)cc(Cl)c3)nnnc2cc1OCCCCl lower than 2 or not?
1.0

Hi there! Is Kinase inhibition rate (VEGFR-2) for FC(F)(F)Oc1cccc(Nc2nnnc3ccc(Cl)nc23)c1 below 2, do you know?
0.0
